- procedure.text: AUC(0 to infinity) in Sprague-Dawley rat at 1 mg/kg, iv
- Assay type: ADME, organism-based
- Design: time infinity, route intravenous, dose 1 mg/kg
- particulars: in vivo
experimental.endpoint: AUC(0-inf) (ng·h/mL)
Field: numeric (ng·h/mL). Do not append units.

Input line: Give its AUC(0-inf) value. Item: CNC(=O)c1cncc(-c2cnc(Cl)c(NS(=O)(=O)c3ccccc3)c2)c1
Output line: 2170

Provenance of the data: ChEMBL document CHEMBL4680147
